Where do the numbers come from? From the kinase profiling compilation of Christmann-Franck et al. (2016).

Molecular target: CLK1 (human)
Experiment: KINOMEscan competition binding
Conditions: compound 10.0 µM
Lab note: compare kinase still bound, per cent of control with 5%, writing 1.0 if less and 0.0 if equal or more.

Consider CNC(=O)c1ccc(Nc2cc(Nc3ccccc3S(=O)(=O)C(C)C)c3cc[nH]c3n2)nc1 . Does its kinase still bound, per cent of control lie strictly below 5%?
1.0

Consider O=c1cc(N2CCOCC2)oc2c(-c3cccc4c3sc3ccccc34)cccc12 . Does its kinase still bound, per cent of control lie strictly below 5%?
0.0

Consider C=CC(=O)Nc1ccc(CN(C(=O)Nc2c(Cl)c(OC)cc(OC)c2Cl)c2cc(Nc3ccc(N4CCN(C)CC4)cc3)ncn2)cc1 . Does its kinase still bound, per cent of control lie strictly below 5%?
0.0

Consider C=CC(=O)Nc1cc(-n2c(=O)ccc3cnc4ccc(-c5cn[nH]c5)cc4c32)ccc1C . Does its kinase still bound, per cent of control lie strictly below 5%?
1.0

Consider CCN(CC)CCCCNc1ncc2c(n1)N(C)C(=O)N(c1c(Cl)c(OC)cc(OC)c1Cl)C2 . Does its kinase still bound, per cent of control lie strictly below 5%?
0.0

Consider Cc1n[nH]c2ccc(-c3cncc(OC[C@@H](N)Cc4c[nH]c5ccccc45)c3)cc12 . Does its kinase still bound, per cent of control lie strictly below 5%?
1.0

Consider COc1ccc(N(C(=O)Oc2c(C)cccc2C)c2ccnc(Nc3ccc(N4CCN(C)CC4)cc3)n2)c(OC)c1 . Does its kinase still bound, per cent of control lie strictly below 5%?
0.0

Consider O=C1NC(=O)/C(=C/c2ccc3nccc(-c4ccncc4)c3c2)S1 . Does its kinase still bound, per cent of control lie strictly below 5%?
1.0

Field: next compound
Consider CN(C)C/C=C/C(=O)Nc1ccc(C(=O)Nc2cccc(Nc3nccc(-c4cccnc4)n3)c2)cc1 . Does its kinase still bound, per cent of control lie strictly below 5%?
1.0

---

Measured kinase still bound, per cent of control, listed per entry for reference.
Molecular target: PIK3CD (human)
Experiment: KINOMEscan competition binding
Conditions: compound 10.0 µM

Reported kinase still bound, per cent of control for COc1cc2ncnc(-n3nc(-c4ccccn4)nc3N)c2cc1OC : what is it?
5%

***
Reported kinase still bound, per cent of control for COc1cc(C(=O)N2CCC(N3CCN(C)CC3)CC2)ccc1Nc1ncc2c(n1)N(C)c1ccccc1C(=O)N2C : what is it?
62%

Reported kinase still bound, per cent of control for C[C@@H](Oc1cc(-c2cnn(C3CCNCC3)c2)cnc1N)c1c(Cl)ccc(F)c1Cl : what is it?
100%

Reported kinase still bound, per cent of control for CCN(CC)CCCCNc1ncc2c(n1)N(C)C(=O)N(c1c(Cl)c(OC)cc(OC)c1Cl)C2 : what is it?
100%

Reported kinase still bound, per cent of control for Cc1n[nH]c2ccc(-c3cncc(OC[C@@H](N)Cc4c[nH]c5ccccc45)c3)cc12 : what is it?
100%

Reported kinase still bound, per cent of control for CN(C)C/C=C/C(=O)Nc1ccc(C(=O)Nc2cccc(Nc3nccc(-c4cccnc4)n3)c2)cc1 : what is it?
91%

Reported kinase still bound, per cent of control for NC(=O)Nc1cc(-c2cccc(F)c2)sc1C(=O)N[C@@H]1CCCNC1 : what is it?
100%

Reported kinase still bound, per cent of control for COc1cc2ncn(-c3cc(OCc4ccccc4C(F)(F)F)c(C(N)=O)s3)c2cc1OC : what is it?
78%

Reported kinase still bound, per cent of control for COc1cc(N2CCN(C)CC2)ccc1Nc1ncc2c(n1)N(C)c1ccccc1C(=O)N2C : what is it?
33%

---

Biological target: UniProtKB Q86V86
Assay: KINOMEscan competition binding
Conditions: compound 10.0 µM
Measured kinase still bound, per cent of control, listed per entry for reference.

Reported kinase still bound, per cent of control for COc1cc(N2CCN(C)CC2)ccc1Nc1ncc2c(n1)N(C)c1ccccc1C(=O)N2C : what is it?
100%

***
Reported kinase still bound, per cent of control for O=C(Nc1cccc(Nc2ncc(Br)c(NCCc3cnc[nH]3)n2)c1)N1CCCC1 : what is it?
69%

Reported kinase still bound, per cent of control for COc1cc(C(=O)N2CCC(N3CCN(C)CC3)CC2)ccc1Nc1ncc2c(n1)N(C)c1ccccc1C(=O)N2C : what is it?
88%

Reported kinase still bound, per cent of control for CCN(CC)CCCCNc1ncc2c(n1)N(C)C(=O)N(c1c(Cl)c(OC)cc(OC)c1Cl)C2 : what is it?
100%

Reported kinase still bound, per cent of control for COc1cc2ncnc(-n3nc(-c4ccccn4)nc3N)c2cc1OC : what is it?
7.6%

Reported kinase still bound, per cent of control for O=c1cc(N2CCOCC2)oc2c(-c3cccc4c3sc3ccccc34)cccc12 : what is it?
65%

Reported kinase still bound, per cent of control for COCC(=O)NC/C=C/c1ccc2ncnc(Nc3ccc(Oc4ccc(C)nc4)c(C)c3)c2c1 : what is it?
100%

Reported kinase still bound, per cent of control for C[C@@H](Oc1cc(-c2cnn(C3CCNCC3)c2)cnc1N)c1c(Cl)ccc(F)c1Cl : what is it?
100%

Reported kinase still bound, per cent of control for CNC(=O)c1ccc(Nc2cc(Nc3ccccc3S(=O)(=O)C(C)C)c3cc[nH]c3n2)nc1 : what is it?
100%

Reported kinase still bound, per cent of control for COc1cc2ncn(-c3cc(OCc4ccccc4C(F)(F)F)c(C(N)=O)s3)c2cc1OC : what is it?
63%

---

Molecular target: STK36 (human) (UniProt Q9NRP7)
Sequence (Q9NRP7 whole entry, looked up): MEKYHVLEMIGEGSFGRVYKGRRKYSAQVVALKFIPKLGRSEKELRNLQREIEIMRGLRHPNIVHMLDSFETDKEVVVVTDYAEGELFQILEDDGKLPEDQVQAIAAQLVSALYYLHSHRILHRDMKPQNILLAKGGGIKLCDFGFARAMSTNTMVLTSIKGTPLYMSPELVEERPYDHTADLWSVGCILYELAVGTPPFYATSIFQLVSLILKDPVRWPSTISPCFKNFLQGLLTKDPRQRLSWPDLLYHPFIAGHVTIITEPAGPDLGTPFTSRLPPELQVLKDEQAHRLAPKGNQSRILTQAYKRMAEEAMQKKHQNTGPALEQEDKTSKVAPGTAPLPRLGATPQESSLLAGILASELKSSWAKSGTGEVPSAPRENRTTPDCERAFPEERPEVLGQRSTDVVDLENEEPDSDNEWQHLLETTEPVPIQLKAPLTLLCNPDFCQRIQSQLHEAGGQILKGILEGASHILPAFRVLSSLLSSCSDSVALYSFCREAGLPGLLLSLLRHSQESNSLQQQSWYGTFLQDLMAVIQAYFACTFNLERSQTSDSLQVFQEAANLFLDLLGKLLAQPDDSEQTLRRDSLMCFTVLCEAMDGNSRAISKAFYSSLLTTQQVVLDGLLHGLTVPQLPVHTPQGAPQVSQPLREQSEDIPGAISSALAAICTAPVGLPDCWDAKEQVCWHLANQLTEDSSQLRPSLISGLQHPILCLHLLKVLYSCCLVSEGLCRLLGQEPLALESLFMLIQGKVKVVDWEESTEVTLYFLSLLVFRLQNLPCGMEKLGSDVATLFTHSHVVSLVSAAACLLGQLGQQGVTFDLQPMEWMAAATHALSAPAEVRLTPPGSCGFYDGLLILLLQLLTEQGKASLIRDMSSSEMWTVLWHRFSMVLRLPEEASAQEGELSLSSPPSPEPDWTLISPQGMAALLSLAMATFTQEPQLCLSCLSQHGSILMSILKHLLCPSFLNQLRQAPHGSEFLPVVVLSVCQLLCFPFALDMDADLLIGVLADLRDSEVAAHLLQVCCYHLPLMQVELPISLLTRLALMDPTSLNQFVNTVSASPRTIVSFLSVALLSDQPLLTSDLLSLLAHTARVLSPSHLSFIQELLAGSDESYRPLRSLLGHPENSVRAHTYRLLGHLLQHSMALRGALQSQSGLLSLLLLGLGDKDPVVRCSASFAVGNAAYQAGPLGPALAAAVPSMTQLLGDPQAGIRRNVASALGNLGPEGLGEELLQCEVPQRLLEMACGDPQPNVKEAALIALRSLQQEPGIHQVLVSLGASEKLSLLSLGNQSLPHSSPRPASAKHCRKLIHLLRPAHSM
Assay: KINOMEscan competition binding
Details: compound 10.0 µM
readout type: kinase still bound, per cent of control (%)
Just the number please, in %, no unit attached.

Here's what some known entries look like.
Reported kinase still bound, per cent of control for COc1cc(N2CCN(C)CC2)ccc1Nc1ncc2c(n1)N(C)c1ccccc1C(=O)N2C : what is it?
100

Reported kinase still bound, per cent of control for NC(=O)Nc1cc(-c2cccc(F)c2)sc1C(=O)N[C@@H]1CCCNC1 : what is it?
74

***
Reported kinase still bound, per cent of control for N#CCNC(=O)c1ccc(-c2ccnc(Nc3ccc(N4CCOCC4)cc3)n2)cc1 : what is it?
95

Reported kinase still bound, per cent of control for C=CC(=O)Nc1cc(-n2c(=O)ccc3cnc4ccc(-c5cn[nH]c5)cc4c32)ccc1C : what is it?
79

---

Target: ANKK1 (human)
Experiment: KINOMEscan competition binding
Conditions: compound 10.0 µM
readout type: kinase still bound, per cent of control (%)
Just the number please, in %, no unit attached.

Reported kinase still bound, per cent of control for CNC(=O)c1ccc(Nc2cc(Nc3ccccc3S(=O)(=O)C(C)C)c3cc[nH]c3n2)nc1 : what is it?
100

Reported kinase still bound, per cent of control for COc1cc(N2CCN(C)CC2)ccc1Nc1ncc2c(n1)N(C)c1ccccc1C(=O)N2C : what is it?
100

# next molecule below
Reported kinase still bound, per cent of control for NC(=O)Nc1cc(-c2cccc(F)c2)sc1C(=O)N[C@@H]1CCCNC1 : what is it?
1.2

---

Measured kinase still bound, per cent of control, listed per entry for reference.
Tested on: RET (human), P07949 [M918T]
Sequence (P07949 whole entry M918T, looked up): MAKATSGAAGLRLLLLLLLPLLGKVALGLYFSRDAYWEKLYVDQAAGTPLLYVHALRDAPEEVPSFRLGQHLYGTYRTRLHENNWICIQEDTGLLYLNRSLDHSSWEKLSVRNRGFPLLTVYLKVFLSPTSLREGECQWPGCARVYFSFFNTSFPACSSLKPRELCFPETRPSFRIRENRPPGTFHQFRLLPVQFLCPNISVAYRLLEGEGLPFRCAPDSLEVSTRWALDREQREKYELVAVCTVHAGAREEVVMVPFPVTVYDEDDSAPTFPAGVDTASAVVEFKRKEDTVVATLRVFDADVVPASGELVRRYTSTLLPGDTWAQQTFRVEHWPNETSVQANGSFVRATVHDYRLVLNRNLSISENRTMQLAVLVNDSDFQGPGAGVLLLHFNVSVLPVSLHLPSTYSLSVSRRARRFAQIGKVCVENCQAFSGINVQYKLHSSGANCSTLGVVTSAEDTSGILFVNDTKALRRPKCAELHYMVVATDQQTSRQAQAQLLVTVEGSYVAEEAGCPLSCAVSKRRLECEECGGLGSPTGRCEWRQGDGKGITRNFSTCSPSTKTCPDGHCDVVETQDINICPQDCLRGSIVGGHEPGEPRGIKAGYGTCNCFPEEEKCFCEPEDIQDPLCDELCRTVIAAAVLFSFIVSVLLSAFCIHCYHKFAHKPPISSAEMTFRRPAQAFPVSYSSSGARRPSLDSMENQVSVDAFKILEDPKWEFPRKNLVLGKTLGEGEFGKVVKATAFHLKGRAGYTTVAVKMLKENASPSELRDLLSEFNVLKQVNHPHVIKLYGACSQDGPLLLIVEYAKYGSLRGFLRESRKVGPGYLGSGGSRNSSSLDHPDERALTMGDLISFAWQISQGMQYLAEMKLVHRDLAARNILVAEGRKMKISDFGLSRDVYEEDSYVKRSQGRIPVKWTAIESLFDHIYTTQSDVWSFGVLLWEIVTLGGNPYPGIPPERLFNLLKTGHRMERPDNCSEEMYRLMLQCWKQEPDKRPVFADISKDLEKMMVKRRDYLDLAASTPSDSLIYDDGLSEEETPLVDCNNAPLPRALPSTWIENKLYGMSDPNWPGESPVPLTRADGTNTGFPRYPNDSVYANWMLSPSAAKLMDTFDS
Test: KINOMEscan competition binding
Details: compound 10.0 µM
Just the number please, in %, no unit attached.

Reported kinase still bound, per cent of control for CCCS(=O)(=O)Nc1ccc(F)c(C(=O)c2c[nH]c3ncc(-c4ccc(Cl)cc4)cc23)c1F : what is it?
28

Reported kinase still bound, per cent of control for CNC(=O)c1ccc(Nc2cc(Nc3ccccc3S(=O)(=O)C(C)C)c3cc[nH]c3n2)nc1 : what is it?
1.4

Reported kinase still bound, per cent of control for COc1ccc(N(C(=O)Oc2cc(C(=O)Nc3cccc(C(F)(F)F)c3)ccc2C)c2ccnc(Nc3ccc(N4CCN(C)CC4)cc3)n2)c(OC)c1 : what is it?
0.3

***
Reported kinase still bound, per cent of control for O=C(O)c1ccc(Nc2ncc3c(n2)-c2ccc(Cl)cc2C(c2c(F)cccc2F)=NC3)cc1 : what is it?
54

Reported kinase still bound, per cent of control for CCc1nc(-c2cccc(C)c2)c(-c2ccnc(NC(=O)c3ccccc3)c2)s1 : what is it?
72

Reported kinase still bound, per cent of control for Cc1ccc2nc(NCCN)c3ncc(C)n3c2c1 : what is it?
100

Reported kinase still bound, per cent of control for CC1=C(C(=O)Nc2cc3cn[nH]c3cc2F)C(c2ccc(C(F)(F)F)cc2)CC(=O)N1 (stereo not drawn) : what is it?
15

Reported kinase still bound, per cent of control for OCCCNc1cc(-c2ccnc(Nc3cccc(Cl)c3)n2)ccn1 : what is it?
100

Reported kinase still bound, per cent of control for C=CC(=O)Nc1ccc(CN(C(=O)Nc2c(Cl)c(OC)cc(OC)c2Cl)c2cc(Nc3ccc(N4CCN(C)CC4)cc3)ncn2)cc1 : what is it?
0.4

Reported kinase still bound, per cent of control for O=C1Nc2ccc(I)cc2/C1=C/c1cc(Br)c(O)c(Br)c1 : what is it?
100
